Reported cAMP EC50 (1.0% HSA) is given for each of the following binders.
- Assay system: human GLP-1 receptor (human, UniProt P43220 24-463)
- Experiment notes: cell-based or functional assay
Field format: number, assumed nM, no unit text.

# input Quick one: cAMP EC50 (1.0% HSA) for YXEGTXTSDXXIXLDXQAQXKFIXXLIKGGPSSGAPPPS (Y-Aib-EGT-αMeF(2F)-TSD-4Pal-Aib-I-αMeL-LD-Orn-QAQ-Aib-K((2-[2-(2-Amino-ethoxy)-ethoxy]-acetyl)2-(γ-Glu)-CO-(CH2)12-CO2H)FI-(D-Glu)-αMeY-LIK((2-[2-(2-Amino-ethoxy)-ethoxy]-acetyl)2-(γ-Glu)-CO-(CH2)12-CO2H)GGPSSGAPPPS-NH2) [Example 488] ?
# output 13

# input What value of cAMP EC50 (1.0% HSA) has been reported for the following binder? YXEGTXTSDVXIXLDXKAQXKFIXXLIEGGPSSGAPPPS (Y-Aib-EGT-αMeF(2F)-TSDV-Aib-I-αMeL-LD-Orn-K((2-[2-(2-Amino-ethoxy)-ethoxy]-acetyl)2-(10-(4-carboxyphenoxy)decanoyl))AQ-Aib-K((2-[2-(2-Amino-ethoxy)-ethoxy]-acetyl)2-(10-(4-carboxyphenoxy)decanoyl))FI-(D-Glu)-αMeY-LIEGGPSSGAPPPS-NH2) [Example 394]
# output 5.83

# input Would you kindly share the measured cAMP EC50 (1.0% HSA) for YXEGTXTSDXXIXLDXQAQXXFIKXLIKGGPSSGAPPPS (Y-Aib-EGT-αMeF(2F)-TSD-4Pal-Aib-I-αMeL-LD-Orn-QAQ-Aib-Orn-FIK(PEG4-(γ-Glu)-(10-(4-carboxyphenoxy)decanoyl))-αMeY-LIK(PEG4-(γ-Glu)-(10-(4-carboxyphenoxy)decanoyl))GGPSSGAPPPS-NH2) [Example 461] ?
# output 2.76
